molecular target: panel of 60 human kinases (Homo sapiens, UniProt P49841); construct: purchased Reaction Biology Corp; experiment: Radiolabeled ATP kinase assay, panel of 60 kinases (Table S5); assay type: biochemical; conditions: GSK3b; 0.1 μM; 10 μM ATP; read-out: % Enzyme Activity (relative to DSMO controls)
Sequence (P49841 whole entry): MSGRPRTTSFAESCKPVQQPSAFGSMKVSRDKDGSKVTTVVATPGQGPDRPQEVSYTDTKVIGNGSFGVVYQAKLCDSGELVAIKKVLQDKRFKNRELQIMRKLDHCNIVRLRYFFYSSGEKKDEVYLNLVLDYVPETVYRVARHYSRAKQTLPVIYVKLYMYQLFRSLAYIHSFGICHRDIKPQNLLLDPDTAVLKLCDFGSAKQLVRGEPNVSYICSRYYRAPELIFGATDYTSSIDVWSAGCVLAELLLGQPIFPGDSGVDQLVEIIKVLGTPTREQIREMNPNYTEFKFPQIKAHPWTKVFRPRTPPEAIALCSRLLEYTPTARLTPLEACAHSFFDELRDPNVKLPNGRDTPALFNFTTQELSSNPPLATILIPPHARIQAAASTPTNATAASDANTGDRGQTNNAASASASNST
So I've got a bunch of compounds here, and I need their remaining activity at 0.1 µM values.
Answer with a number only, understood to be in %.

input: Item Cc1nn(C)c(C)c1-c1c[nH]c2ncc(-c3ccc(CN4CCN(C)CC4)cc3)cc12 [Compound 7ai] has what recorded remaining activity at 0.1 µM?
output: 94

input: Please give the result for CN1CCN(Cc2ccc(-c3cnc4[nH]cc(-c5ccccc5Cl)c4c3)cc2)CC1 [Compound 7as] too.
output: 98.9

input: Please give the result for COc1ccccc1-c1c[nH]c2ncc(-c3ccc(CN4CCN(C)CC4)cc3)cc12 [Compound 7at] too.
output: 97.3

input: Please give the result for CN1CCN(Cc2ccc(-c3cnc4[nH]cc(-c5ccncc5)c4c3)cc2)CC1 [Compound 7n] too.
output: 90.7

---

target: panel of 60 human kinases (Homo sapiens); construct: purchased Reaction Biology Corp; assay: Radiolabeled ATP kinase assay, panel of 60 kinases (Table S5); type: biochemical; details: CDK6/cyclin D3; 0.1 μM; 10 μM ATP; read-out: % Enzyme Activity (relative to DSMO controls)
Quantity measured: remaining activity at 0.1 µM (%)
Answer with a number only, understood to be in %.

input: Item COc1ccccc1-c1c[nH]c2ncc(-c3ccc(CN4CCN(C)CC4)cc3)cc12 [Compound 7at] has what recorded remaining activity at 0.1 µM?
output: 46

input: Please give the result for CN1CCN(Cc2ccc(-c3cnc4[nH]cc(-c5ccncc5)c4c3)cc2)CC1 [Compound 7n] too.
output: 51.8

input: Please give the result for Cc1nn(C)c(C)c1-c1c[nH]c2ncc(-c3ccc(CN4CCN(C)CC4)cc3)cc12 [Compound 7ai] too.
output: 76

input: Please give the result for CN1CCN(Cc2ccc(-c3cnc4[nH]cc(-c5ccc6c(c5)OCCO6)c4c3)cc2)CC1 [Compound 7d] too.
output: 52.3

input: Please give the result for CN1CCN(Cc2ccc(-c3cnc4[nH]cc(-c5ccoc5)c4c3)cc2)CC1 [Compound 7w] too.
output: 68.4

input: Please give the result for CN1CCN(Cc2ccc(-c3cnc4[nH]cc(-c5cccc(Cl)c5)c4c3)cc2)CC1 [Compound 7ad] too.
output: 58.8

input: Please give the result for CN1CCN(Cc2ccc(-c3cnc4[nH]cc(-c5cnn(Cc6ccccc6)c5)c4c3)cc2)CC1 [Compound 7ah] too.
output: 33.2

input: Please give the result for CN1CCN(Cc2ccc(-c3cnc4[nH]cc(-c5ccccc5Cl)c4c3)cc2)CC1 [Compound 7as] too.
output: 36.1

input: Please give the result for CN1CCN(Cc2ccc(-c3cnc4[nH]cc(-c5ccc6[nH]ccc6c5)c4c3)cc2)CC1 [Compound 1, reference compound] too.
output: 66.1

---

Target: MLK1/MAP3K9 (Homo sapiens, UniProt P80192)
Construct: purchased Reaction Biology Corp
Sequence (P80192 whole entry): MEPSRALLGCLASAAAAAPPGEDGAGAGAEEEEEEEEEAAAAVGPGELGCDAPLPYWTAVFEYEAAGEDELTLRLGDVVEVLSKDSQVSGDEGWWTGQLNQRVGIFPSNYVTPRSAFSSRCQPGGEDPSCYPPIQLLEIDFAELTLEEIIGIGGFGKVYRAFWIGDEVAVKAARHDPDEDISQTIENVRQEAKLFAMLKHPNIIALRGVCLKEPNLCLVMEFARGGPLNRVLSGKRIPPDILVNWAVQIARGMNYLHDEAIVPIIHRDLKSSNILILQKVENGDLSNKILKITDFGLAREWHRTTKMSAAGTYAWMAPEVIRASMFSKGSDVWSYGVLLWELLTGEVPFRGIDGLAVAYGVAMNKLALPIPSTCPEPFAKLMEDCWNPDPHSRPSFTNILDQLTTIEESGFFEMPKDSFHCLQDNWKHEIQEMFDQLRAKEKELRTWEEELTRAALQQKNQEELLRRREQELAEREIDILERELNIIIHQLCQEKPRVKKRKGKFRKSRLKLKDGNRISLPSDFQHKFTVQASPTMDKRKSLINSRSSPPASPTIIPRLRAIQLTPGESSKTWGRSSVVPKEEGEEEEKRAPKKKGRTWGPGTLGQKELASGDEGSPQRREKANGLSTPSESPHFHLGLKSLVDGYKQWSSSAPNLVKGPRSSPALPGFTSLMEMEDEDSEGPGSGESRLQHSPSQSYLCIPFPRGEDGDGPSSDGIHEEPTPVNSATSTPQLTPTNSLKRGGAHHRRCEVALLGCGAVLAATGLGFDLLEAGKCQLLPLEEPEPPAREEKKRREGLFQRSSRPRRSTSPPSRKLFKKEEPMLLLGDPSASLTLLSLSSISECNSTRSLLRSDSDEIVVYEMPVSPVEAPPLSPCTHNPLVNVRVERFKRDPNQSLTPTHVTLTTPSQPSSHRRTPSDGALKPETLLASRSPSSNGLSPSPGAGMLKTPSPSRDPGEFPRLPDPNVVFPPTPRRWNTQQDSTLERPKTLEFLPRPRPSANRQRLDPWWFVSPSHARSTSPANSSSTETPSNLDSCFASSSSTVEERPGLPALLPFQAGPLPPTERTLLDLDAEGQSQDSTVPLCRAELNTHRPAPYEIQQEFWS
Assay: Radiolabeled ATP kinase assay (Reaction Biology Corp.), MLK1
Assay type: biochemical
Settings: [Cmpd] 0.1 μM; 10 μM ATP; read-out: % Enzyme Activity Remaining (relative to DMSO controls), MLK1/MAP3K9, Data 2
Method: Meanwhile, the same analogs were analyzed in a radiolabeled ATP assay (10 μM ATP; Reaction Biology Corp.) to compare the extent to which they could inhibit the activity of HGK, MLK1, or MLK3 in a cell-free environment (Table S3 and S4).
So I've got a bunch of molecules here, and I need their remaining activity at 0.1 µM values.
Answer with a number only, understood to be in %.

input: Item CN1CCN(Cc2ccc(-c3cnc4[nH]cc(-c5ccoc5)c4c3)cc2)CC1 has what recorded remaining activity at 0.1 µM?
output: 79.3

input: Please give the result for CC(=O)c1ccc(-c2c[nH]c3ncc(-c4ccc(CN5CCN(C)CC5)cc4)cc23)cc1 too.
output: 67.7

input: Please give the result for CN1CCN(Cc2ccc(-c3cnc4[nH]cc(-c5ccc6[nH]ccc6c5)c4c3)cc2)CC1 [Compound 1, reference compound] too.
output: 14.2

input: Please give the result for COC(=O)Nc1cccc(-c2c[nH]c3ncc(-c4ccc(CN5CCN(C)CC5)cc4)cc23)c1 too.
output: 32.7

input: Please give the result for C[C@@H](NC(=O)Nc1cccc(-c2c[nH]c3ncc(-c4ccc(CN5CCN(C)CC5)cc4)cc23)c1)c1ccccc1 too.
output: 92.3

input: Please give the result for COc1ccc(-c2c[nH]c3ncc(-c4ccc(CN5CCN(C)CC5)cc4)cc23)cc1C too.
output: 53.6

input: Please give the result for CN1CCN(Cc2ccc(-c3cnc4[nH]cc(-c5cccc(Cl)c5)c4c3)cc2)CC1 too.
output: 63.6

---

molecular target: panel of 60 human kinases (Homo sapiens); construct: purchased Reaction Biology Corp; assay: Radiolabeled ATP kinase assay, panel of 60 kinases (Table S5); format: biochemical; details: P38g; 0.1 μM; 10 μM ATP; read-out: % Enzyme Activity (relative to DSMO controls)
So I've got a bunch of compounds here, and I need their remaining activity at 0.1 µM values.
Answer with a number only, understood to be in %.

input: Item CN1CCN(Cc2ccc(-c3cnc4[nH]cc(-c5ccncc5)c4c3)cc2)CC1 [Compound 7n] has what recorded remaining activity at 0.1 µM?
output: 114

input: Please give the result for Cc1nn(C)c(C)c1-c1c[nH]c2ncc(-c3ccc(CN4CCN(C)CC4)cc3)cc12 [Compound 7ai] too.
output: 106

input: Please give the result for CN1CCN(Cc2ccc(-c3cnc4[nH]cc(-c5ccc6c(c5)OCCO6)c4c3)cc2)CC1 [Compound 7d] too.
output: 108

input: Please give the result for CN1CCN(Cc2ccc(-c3cnc4[nH]cc(-c5cccc(Cl)c5)c4c3)cc2)CC1 [Compound 7ad] too.
output: 108

---

target: panel of 60 human kinases (Homo sapiens, UniProt P53779); construct: purchased Reaction Biology Corp; test: Radiolabeled ATP kinase assay, panel of 60 kinases (Table S5); format: biochemical; details: JNK3; 0.1 μM; 10 μM ATP; read-out: % Enzyme Activity (relative to DSMO controls)
Sequence (P53779 whole entry): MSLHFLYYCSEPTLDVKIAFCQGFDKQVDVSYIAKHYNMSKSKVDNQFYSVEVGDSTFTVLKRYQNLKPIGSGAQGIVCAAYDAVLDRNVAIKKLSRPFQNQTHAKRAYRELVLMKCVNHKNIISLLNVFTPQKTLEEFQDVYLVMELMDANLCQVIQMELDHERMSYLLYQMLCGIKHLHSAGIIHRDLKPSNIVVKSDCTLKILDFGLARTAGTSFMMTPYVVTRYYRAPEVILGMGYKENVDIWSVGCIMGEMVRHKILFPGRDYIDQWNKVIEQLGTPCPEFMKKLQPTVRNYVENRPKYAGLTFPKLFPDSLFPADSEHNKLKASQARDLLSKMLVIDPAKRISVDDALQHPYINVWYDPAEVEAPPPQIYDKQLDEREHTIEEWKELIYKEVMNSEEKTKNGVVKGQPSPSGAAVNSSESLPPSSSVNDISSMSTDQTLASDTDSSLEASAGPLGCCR
Quantity measured: remaining activity at 0.1 µM (%)
Answer with a number only, understood to be in %.

input: Request: remaining activity at 0.1 µM, test system panel of 60 human kinases (Homo sapiens, UniProt P53779), entry COc1ccccc1-c1c[nH]c2ncc(-c3ccc(CN4CCN(C)CC4)cc3)cc12 [Compound 7at]
output: 104

input: Please give the result for CN1CCN(Cc2ccc(-c3cnc4[nH]cc(-c5ccc6c(c5)OCCO6)c4c3)cc2)CC1 [Compound 7d] too.
output: 120

input: Please give the result for CN1CCN(Cc2ccc(-c3cnc4[nH]cc(-c5ccncc5)c4c3)cc2)CC1 [Compound 7n] too.
output: 115

input: Please give the result for CN1CCN(Cc2ccc(-c3cnc4[nH]cc(-c5ccccc5Cl)c4c3)cc2)CC1 [Compound 7as] too.
output: 111

input: Please give the result for CN1CCN(Cc2ccc(-c3cnc4[nH]cc(-c5ccoc5)c4c3)cc2)CC1 [Compound 7w] too.
output: 113

input: Please give the result for CN1CCN(Cc2ccc(-c3cnc4[nH]cc(-c5cnn(Cc6ccccc6)c5)c4c3)cc2)CC1 [Compound 7ah] too.
output: 81.8

input: Please give the result for CN1CCN(Cc2ccc(-c3cnc4[nH]cc(-c5ccc6[nH]ccc6c5)c4c3)cc2)CC1 [Compound 1, reference compound] too.
output: 122

input: Please give the result for CN1CCN(Cc2ccc(-c3cnc4[nH]cc(-c5cccc(Cl)c5)c4c3)cc2)CC1 [Compound 7ad] too.
output: 106

input: Please give the result for Cc1nn(C)c(C)c1-c1c[nH]c2ncc(-c3ccc(CN4CCN(C)CC4)cc3)cc12 [Compound 7ai] too.
output: 107

---

Molecular target: panel of 60 human kinases (Homo sapiens)
Construct: purchased Reaction Biology Corp
Assay: Radiolabeled ATP kinase assay, panel of 60 kinases (Table S5)
Type: biochemical
Details: PKCmu/PRKD1; 0.1 μM; 10 μM ATP; read-out: % Enzyme Activity (relative to DSMO controls)
Protocol: To better understand the biologically relevant targets of compound 1 and its analogs, a second round of cell-free kinase assays was performed. In this expanded assay, we selected ten analogs ranging from moderately to very strongly protective in the CPA assay. These analogs were evaluated for their ability to inhibit a selection of 60 kinases at 0.1 μM and 0.5 μM. […] RNAseq data were used to confirm the expression of each kinase in ES MNs (see Example 12). […]
Label label 1 when remaining activity at 0.1 µM is strictly below 10%; at or above that, label label 0.

input: Lab note: confirm whether the reported remaining activity at 0.1 µM for this compound is below 10%, equality not counting. compound: CN1CCN(Cc2ccc(-c3cnc4[nH]cc(-c5cccc(Cl)c5)c4c3)cc2)CC1 [Compound 7ad]
output: label 1

input: Please give the result for CN1CCN(Cc2ccc(-c3cnc4[nH]cc(-c5ccc6c(c5)OCCO6)c4c3)cc2)CC1 [Compound 7d] too.
output: label 1

input: Please give the result for CN1CCN(Cc2ccc(-c3cnc4[nH]cc(-c5ccncc5)c4c3)cc2)CC1 [Compound 7n] too.
output: label 0

input: Please give the result for CN1CCN(Cc2ccc(-c3cnc4[nH]cc(-c5cnn(Cc6ccccc6)c5)c4c3)cc2)CC1 [Compound 7ah] too.
output: label 1

input: Please give the result for CN1CCN(Cc2ccc(-c3cnc4[nH]cc(-c5ccoc5)c4c3)cc2)CC1 [Compound 7w] too.
output: label 0

input: Please give the result for CN1CCN(Cc2ccc(-c3cnc4[nH]cc(-c5ccccc5Cl)c4c3)cc2)CC1 [Compound 7as] too.
output: label 1

input: Please give the result for CN1CCN(Cc2ccc(-c3cnc4[nH]cc(-c5ccc6[nH]ccc6c5)c4c3)cc2)CC1 [Compound 1, reference compound] too.
output: label 0

input: Please give the result for Cc1nn(C)c(C)c1-c1c[nH]c2ncc(-c3ccc(CN4CCN(C)CC4)cc3)cc12 [Compound 7ai] too.
output: label 0

input: Please give the result for COc1ccccc1-c1c[nH]c2ncc(-c3ccc(CN4CCN(C)CC4)cc3)cc12 [Compound 7at] too.
output: label 0
